- targetUnderTest: A3 W243F-YFP (Homo sapiens, UniProt P0DMS8, W243F)
- Construct: Full length A3 W243F-YFP was excised and subcloned into a native pcDNA3.1 vector
- Sequence (P0DMS8 whole entry W243F): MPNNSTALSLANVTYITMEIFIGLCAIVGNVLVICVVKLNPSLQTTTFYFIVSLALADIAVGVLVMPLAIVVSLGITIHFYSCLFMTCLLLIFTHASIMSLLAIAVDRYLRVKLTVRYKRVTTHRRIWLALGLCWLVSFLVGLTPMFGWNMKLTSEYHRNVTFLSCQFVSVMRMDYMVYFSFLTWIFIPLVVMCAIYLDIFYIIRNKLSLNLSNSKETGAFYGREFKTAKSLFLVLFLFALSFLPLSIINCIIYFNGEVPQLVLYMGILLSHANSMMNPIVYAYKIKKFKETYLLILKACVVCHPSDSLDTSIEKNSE
- testMethodNotes: Fluorescence-based competition binding assay with CA200645, A3 W243F-YFP
- experimentalContext: A3 W243F-YFP cells, 25 nM CA200645, 60 min, 37°C
measuredMetric: Ki (nM)
Give the quantity in nM, number only.

Q: I'm curious: which Ki was measured for "CCCCC#Cc1nc(NC)c2ncn([C@@H]3O[C@H](CO)[C@@H](O)[C@H]3O)c2n1" tested on A3 W243F-YFP (Homo sapiens, UniProt P0DMS8, W243F)?
A: 45.7
